ASSAY_SUMMARY: BSK_SAg_PBMCCytotoxicity: PBMC Cytotoxicity Assessment in the BioMAP Diversity Plus: SAg Assay (AID 2283093);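 note: PBMC viability measured as Alamar Blue reduction fluorescence at 546/580 nm; fitted both ways against DMSO so a hit may be loss or gain of signal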
CONDITIONS: primary human HUVEC with PBMC
Activity calls are given as the source filed them. Rule for the calls: active = hit-call score of the fitted dose curve at least 0.9, where 1 is the maximum; inactive = score below 0.9.
Entry note: the call must match one of YES = active, NO = inactive

Below, 3 molecules whose answers are already recorded.
| STRUCTURE_NOTATION | LABEL_CLASS |
| --- | --- |
| Oc1ccc(C(c2ccc(O)cc2)C(Cl)(Cl)Cl)cc1 | YES |
| Cc1nn(C)c(Oc2ccccc2)c1C=NOCc1ccc(C(=O)OC(C)(C)C)cc1 | NO |
| CCN(CC)C(=O)c1cccc(C)c1 | NO |

Answer briefly: the call reported for `COC(=O)c1ccccc1C(=O)O` in this assay.
NO

Answer briefly: the call reported for `O=C(O)C1(C(=O)Nc2ccc(Cl)cc2Cl)CC1` in this assay.
NO

Answer briefly: the call reported for `COC(=O)c1ccc(I)cc1S(=O)(=O)NC(=O)Nc1nc(C)nc(OC)n1` in this assay.
NO

Answer briefly: the call reported for `COC(=O)c1ccc(CNS(C)(=O)=O)cc1S(=O)(=O)NC(=O)Nc1nc(OC)cc(OC)n1` in this assay.
NO

Every entry's value here was drawn from PubChem BioAssay (EPA / NIEHS).
